Source: paper PMC5540273

Tested on: ERBB2
EXPERIMENTAL CONTEXT: concentration: 1 μM,replicates: in singlicate; n = 1;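 note: KINOMEscan kinase panel screen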
ENDPOINT NAME: %Inh (%)
All answers are understood in %, so give the number only.

Some compounds with recorded %Inh:
COMPOUND: COc1cccc(CNC(=O)NC2CCN(c3ccnc(Nc4cc(OC)c(OC)c(OC)c4)n3)C2)c1 (centres unmarked) [GSK1379765]
UNIT LABEL: %
MEAS VALUE: 17
--
COMPOUND: Cn1ccc2ncnc(Oc3ccc(NC(=O)Nc4cnn(C(C)(C)C)c4)c(Cl)c3)c21
UNIT LABEL: %
MEAS VALUE: 31
--
COMPOUND: Cc1ccc(CC(=O)N2CCc3cc(-c4cn(C)c5ncnc(N)c45)ccc32)cc1 [GSK2634758]
UNIT LABEL: %
MEAS VALUE: 0
--
COMPOUND: Cn1ccc2ncnc(Oc3ccc(NC(=O)Nc4ccnc(C(F)(F)F)c4)c(Cl)c3)c21
UNIT LABEL: %
MEAS VALUE: 20
--
COMPOUND: Cn1ccc2ncnc(Oc3ccc(NC(=O)Nc4cccc(C(F)(F)F)c4)c(F)c3)c21
UNIT LABEL: %
MEAS VALUE: 10

Any idea what %Inh was measured for CS(=O)c1ccc(-c2coc3ccc(-c4n[nH]c(=O)o4)cc23)cc1 (centres unmarked) ? 0

====

Catalogue of %Inh readings, one per entry.
System: SIK2
EXPERIMENTAL CONTEXT: concentration: 1 μM,replicates: in singlicate; n = 1
All answers are understood in %, so give the number only.

Some compounds with recorded %Inh:
COMPOUND: Nc1nccc(-c2ccc3c(N)n[nH]c3c2)n1 [GSK1034945]
TARGET DESC: SIK2
MEAS VALUE: 0

COMPOUND: O=C(Nc1ccc(Oc2ccc3nc(NC(=O)C4CC4)cn3n2)c(F)c1)c1cccn(-c2ccccc2)c1=O
TARGET DESC: SIK2
MEAS VALUE: 8

COMPOUND: Cc1cccc(-c2nc(Nc3ccncc3)c3sccc3n2)n1 [GW869641]
TARGET DESC: SIK2
MEAS VALUE: 0

Any idea what %Inh was measured for O=C(Nc1n[nH]c2cc(-c3ccco3)ccc12)C1CC1 [SB-737447] ? 0

Any idea what %Inh was measured for C[C@@H](Oc1cc(-n2cnc3cc(-c4cnn(C)c4)ccc32)sc1C(N)=O)c1ccccc1Cl [GSK580432] ? 74

Any idea what %Inh was measured for CC(C)c1nc(-c2cccc(NS(=O)(=O)c3ccccc3)c2)c(-c2ccnc(Nc3ccc4c(c3)CN(C)CC4)n2)s1 [GSK1649598] ? 87

Any idea what %Inh was measured for CN1CCN(CCNc2nc3cc(Oc4ccc(NC(=O)Nc5cc(C(F)(F)F)ccc5F)cc4)ccc3[nH]2)CC1.Cl.Cl [GW768504] ? 0

Any idea what %Inh was measured for COc1cc(Nc2nccc(N3CCC(NC(=O)c4cccc(C#N)c4)C3)n2)cc(OC)c1OC (centres unmarked) [GSK1379751] ? 0

====

Tested on: PRKCQ
EXPERIMENTAL CONTEXT: concentration: 1 μM,replicates: in singlicate; n = 1
ENDPOINT NAME: %Inh (%)
All answers are understood in %, so give the number only.

Some compounds with recorded %Inh:
COMPOUND: CN1CCN(CCNc2nc3cc(Oc4ccc(NC(=O)Nc5cc(C(F)(F)F)ccc5F)cc4)ccc3[nH]2)CC1.Cl.Cl
ENDPOINT NAME: %Inh
MEAS VALUE: 0
--
COMPOUND: Cc1cccc(-c2nc(Nc3ccncc3)c3sccc3n2)n1
ENDPOINT NAME: %Inh
MEAS VALUE: 0
--
COMPOUND: Cn1ccc2ncnc(Oc3ccc(NC(=O)Nc4cc(C(C)(C)C)on4)c(Cl)c3)c21
ENDPOINT NAME: %Inh
MEAS VALUE: 27
--
COMPOUND: Cc1ccc(C(=O)Nc2ccc(Oc3ccc4nc(NC(=O)C5CC5)cn4c3)c(F)c2)c(=O)n1-c1ccccc1
ENDPOINT NAME: %Inh
MEAS VALUE: 24
--
COMPOUND: CCNCC(Cc1ccccc1)NC(=O)c1cc(Br)c(-c2ccnc3[nH]ccc23)s1.Cl.Cl (centres unmarked)
ENDPOINT NAME: %Inh
MEAS VALUE: 74
--
COMPOUND: CN(c1ccccc1CNc1nc(Nc2ccc3c(c2)CC(=O)N3)ncc1C(F)(F)F)S(C)(=O)=O
ENDPOINT NAME: %Inh
MEAS VALUE: 80
--
COMPOUND: NC(=O)c1ccc(-c2cc3ncnc(SCC(=O)O)c3s2)cc1
ENDPOINT NAME: %Inh
MEAS VALUE: 0
--
COMPOUND: COC(=O)c1cccc(NC(=O)NC2CCN(c3ccnc(NCc4ccc(F)cc4)n3)CC2)c1
ENDPOINT NAME: %Inh
MEAS VALUE: 26

Any idea what %Inh was measured for "O=c1[nH]cc(-c2ccc(O)cc2)c2sc(-c3ccncc3)cc12" ? 19

====

Catalogue of %Inh readings, one per entry.
Test system: SRPK1
EXPERIMENTAL CONTEXT: concentration: 1 μM,replicates: in singlicate; n = 1
Answer format: number, then unit.

COMPOUND: CS(=O)c1ccc(-c2coc3ccc(-c4n[nH]c(=O)o4)cc23)cc1 (stereo not drawn)
%Inh: 0%

COMPOUND: Cn1ccc2ncnc(Oc3ccc(NC(=O)Nc4cccc(C(F)(F)F)c4)c(F)c3)c21
%Inh: 23%

COMPOUND: CCOC(=O)N1CCC(n2cnc(-c3ccc(F)cc3)c2-c2ccnc(N)n2)CC1
%Inh: 9%

COMPOUND: COc1cc2c(Nc3ccc(NC(=O)c4ccccc4)cc3)ncnc2cc1OCCCN1CCOCC1
%Inh: 0%

COMPOUND: CS(=O)(=O)Nc1ccc(-c2ccnc3[nH]ccc23)cc1
%Inh: 77%

Give SRPK1 %Inh for "Cc1ccn2nc(-c3ccc(F)cc3)c(-c3ccncc3)c2c1.Cl" 13%

Give SRPK1 %Inh for "O=C(Nc1n[nH]c2cc(-c3ccco3)ccc12)C1CC1" 62%

Give SRPK1 %Inh for "Nc1nccc(-c2ccc3c(N)n[nH]c3c2)n1" 67%

Give SRPK1 %Inh for "C[C@@H]1CNc2c(sc3ccc4nc(-c5ccncc5)ccc4c23)C(=O)N1" 23%

====

Catalogue of %Inh readings, one per entry.
Tested on: DYRK1B
EXPERIMENTAL CONTEXT: concentration: 1 μM,replicates: in singlicate; n = 1
All answers are understood in %, so give the number only.

COMPOUND: Cc1cccc2c(-c3ccncc3)c(-c3ccc(F)cc3)nn12.Cl
UNIT LABEL: %
MEAS VALUE: 0

COMPOUND: CS(=O)c1ccc(-c2coc3ccc(-c4n[nH]c(=O)o4)cc23)cc1 (stereo not drawn)
UNIT LABEL: %
MEAS VALUE: 68

Any idea what %Inh was measured for "CN1CCN(CCCNc2nccc(-c3c(-c4ccc(F)cc4)nn4cc(C(N)=O)ccc34)n2)CC1" ? 100

Any idea what %Inh was measured for "O=C1NCCc2[nH]c(-c3ccncc3)cc21" ? 97.6

Any idea what %Inh was measured for "Cn1ccc2ncnc(Oc3ccc(NC(=O)Nc4cnn(C(C)(C)C)c4)c(Cl)c3)c21" ? 62

Any idea what %Inh was measured for "C[C@@H](Oc1cc(-n2cnc3cc(-c4cnn(C)c4)ccc32)sc1C(N)=O)c1ccccc1Cl" ? 0

Any idea what %Inh was measured for "CN(c1cccc(CNc2nc(Nc3ccc4c(c3)CC(=O)N4)ncc2C(F)(F)F)c1)S(C)(=O)=O" ? 57

Any idea what %Inh was measured for "C[C@@H]1CCN(C(=O)N2CCCC2)C[C@@H]1N(C)c1ncnc2[nH]ccc12" ? 0

Any idea what %Inh was measured for "CNC(=O)c1ccccc1Nc1nc(Nc2cccc(CS(C)(=O)=O)c2)ncc1C.O=CO" ? 83

Any idea what %Inh was measured for "Cc1ccc(C(=O)Nc2ccc(Oc3ccc4nc(NC(=O)C5CC5)cn4c3)c(F)c2)c(=O)n1-c1ccccc1" ? 39

Any idea what %Inh was measured for "C[C@@H](Oc1cc(-n2cnc3cc(-c4ccncc4)ccc32)sc1C(N)=O)c1ccccc1Cl" ? 18

====

Tested on: MYO3A
EXPERIMENTAL CONTEXT: concentration: 1 μM,replicates: in singlicate; n = 1
Catalogue of %Inh readings, one per entry.
All answers are understood in %, so give the number only.

Any idea what %Inh was measured for Cc1ccc2c(-c3ccnc(Nc4ccc(C(F)(F)F)cc4)n3)cnn2n1 [GW819776] ? 0

Any idea what %Inh was measured for "Cn1ccc2ncnc(Oc3ccc(NC(=O)Nc4cccc(C(F)(F)F)c4)c(F)c3)c21" ? 8

Any idea what %Inh was measured for COc1cc(Nc2nccc(N3CCC(NC(=O)c4cccc(C#N)c4)C3)n2)cc(OC)c1OC (centres unmarked) [GSK1379751] ? 46

Any idea what %Inh was measured for Cc1ccc(CC(=O)N2CCc3cc(-c4cn(C)c5ncnc(N)c45)ccc32)cc1 [GSK2634758] ? 0

Any idea what %Inh was measured for "O=C(NOCC1CC1)c1cc(Br)c(F)c(F)c1Nc1ccc(I)cc1Cl" ? 0
